In this section, each of the molecules is paired with its reported SM-R MIC.
- Test system: M. tuberculosis SM-R
- Type: cell-based
- test-context: streptomycin-resistant mycobacteria
Answer with a number only, understood to be in µg/mL.

Example entries begin here.
• CCCc1ccc(-n2c(-c3ccc(SC)cc3)cc(CN3CCSCC3)c2C)cc1 [Compound 3d] = 0.25
• CSc1ccc(-c2cc(CN3CCN(C)CC3)c(C)n2-c2ccc(F)cc2)cc1 [Compound 3f] = 1
• CSc1ccc(-c2cc(CN3CCOCC3)c(C)n2-c2ccc(F)cc2)cc1 [Compound 3h] = 0.25
• CCc1ccc(-n2c(-c3ccc(SC)cc3)cc(CN3CCSCC3)c2C)cc1 [Compound 3c] = 0.25
• CSc1ccc(-c2cc(CN3CCSCC3)c(C)n2-c2ccc(C(C)C)cc2)cc1 [Compound 3e] = 0.125

Input CSc1ccc(-c2cc(CN3CCSCC3)c(C)n2-c2ccc(C)cc2)cc1 [Compound 3b] . Output SM-R MIC: 0.25

* * *

- System: M. tuberculosis RMP-R
- assay-comment: microbe, parasite or virus in culture
- Assay type: cell-based
- test-context: rifampicin-resistant mycobacteria
Below: a set of entries, each annotated with reported M. tuberculosis RMP-R (Rif-R) MIC.
Output spec: scalar in µg/mL, unitless text.

Below: 5 compounds and their reported M. tuberculosis RMP-R (Rif-R) MIC.
- CSc1ccc(-c2cc(CN3CCSCC3)c(C)n2-c2ccc(C)cc2)cc1 [Compound 3b]: 0.25
- CSc1ccc(-c2cc(CN3CCN(C)CC3)c(C)n2-c2ccc(F)cc2)cc1 [Compound 3f]: 2
- CCc1ccc(-n2c(-c3ccc(SC)cc3)cc(CN3CCSCC3)c2C)cc1 [Compound 3c]: 0.25
- CSc1ccc(-c2cc(CN3CCOCC3)c(C)n2-c2ccc(F)cc2)cc1 [Compound 3h]: 2
- CSc1ccc(-c2cc(CN3CCSCC3)c(C)n2-c2ccc(C(C)C)cc2)cc1 [Compound 3e]: 1

Read the next record carefully.
Record CCCc1ccc(-n2c(-c3ccc(SC)cc3)cc(CN3CCSCC3)c2C)cc1 [Compound 3d] / M. tuberculosis RMP-R, M. tuberculosis RMP-R (Rif-R) MIC recorded as 0.5

* * *

Quick reference for PZA-R MIC among some compounds
- Test system: M. tuberculosis PZA-R
- Format: cell-based
- test-context: pirazinamide-resistant mycobacteria
Output spec: scalar in µg/mL, unitless text.

These recorded examples may help you get a feel for the data.
• CCc1ccc(-n2c(-c3ccc(SC)cc3)cc(CN3CCSCC3)c2C)cc1 = 0.25
• CSc1ccc(-c2cc(CN3CCSCC3)c(C)n2-c2ccc(C(C)C)cc2)cc1 = 1
• CSc1ccc(-c2cc(CN3CCOCC3)c(C)n2-c2ccc(F)cc2)cc1 = 0.5
• CSc1ccc(-c2cc(CN3CCN(C)CC3)c(C)n2-c2ccc(F)cc2)cc1 = 2

# PZA-R MIC of CCCc1ccc(-n2c(-c3ccc(SC)cc3)cc(CN3CCSCC3)c2C)cc1 = 0.5

Sure, the documented PZA-R MIC for CSc1ccc(-c2cc(CN3CCSCC3)c(C)n2-c2ccc(C)cc2)cc1 is 0.5

* * *

- Tested on: M. tuberculosis RMP-R
- assay-comment: microbe, parasite or virus in culture
- Format: cell-based
- test-context: Mycobacterium tuberculosis, read-out: M. tuberculosis RMP-R (Rif-R) MIC
Recorded MIC for the following compounds
Just the number in µg/mL, nothing appended.

- [H]/N=C(/N)N[C@H]1[C@H](O)[C@@H](O)[C@H](O[C@@H]2O[C@@H](C)[C@](O)(C=O)[C@H]2O[C@@H]2O[C@@H](CO)[C@H](O)[C@@H](O)[C@@H]2NC)[C@@H](N/C(N)=N\[H])[C@@H]1O [Streptomycin, SM, Streptomycin, reference compound]: 0.5
- NNC(=O)c1ccncc1 [Isoniazid, INH, Isoniazid, reference compound]: 0.25

Now examine the next entry.
The compound listed as CSc1ccc(-c2cc(CN3CCSCC3)c(C)n2-c2ccc(F)cc2)cc1 has a reported MIC of 0.25
